- system: papain (Carica papaya)
- Construct: purchased Sigma Chem. Co
- Sequence (P00784 134-345): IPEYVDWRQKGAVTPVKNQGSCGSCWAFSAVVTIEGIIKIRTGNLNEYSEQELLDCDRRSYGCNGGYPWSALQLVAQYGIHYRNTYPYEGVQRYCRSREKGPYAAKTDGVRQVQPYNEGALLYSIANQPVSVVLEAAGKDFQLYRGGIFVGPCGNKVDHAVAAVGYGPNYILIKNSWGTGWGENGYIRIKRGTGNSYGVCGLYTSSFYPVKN
- protocol.notes: Papain inhibitory activity (milk casein digestion)
- Assay type: biochemical
- cond: papain 80 μg/ml 0.5 ml, cysteine, pH 6.8, 1% milk casein, 40° C., 10 minutes
readout.type: ID50 (amount of inhibitor for 50% inhibition)

O=C(O)[C@H]1O[C@@H]1C(=O)OCc1ccc(I)cc1Br (relative stereo)
0.40 γ

Look up ID50 (amount of inhibitor for 50% inhibition) for the entries below, preserving their order.
1. CC1CCCC(C)C1OC(=O)C1OC1C(=O)O (centres unmarked)
2. Cc1ccc(COC(=O)C2OC2C(=O)N[C@@H](CCCCNC(=O)OCc2ccccc2)C(=O)OCc2ccccc2)cc1 (some centres unmarked)
3. O=C(O)[C@@H]1O[C@H]1C(=O)OCC1CCC=CCCC1 (relative stereo)

0.10 γ
6.59 γ
0.07 γ

Look up ID50 (amount of inhibitor for 50% inhibition) for the entries below, preserving their order.
1. O=C(O)[C@@H]1O[C@H]1C(=O)OCc1cccc(C(F)(F)F)c1 (relative stereo)
2. CCCCOC(=O)[C@H](CC(C)C)NC(=O)C1OC1C(=O)OCc1ccco1 (some centres unmarked)
3. CC(OC(=O)C1OC1C(=O)N[C@@H](CCCCN)C(=O)OCc1ccccc1)C1CCCC1 (some centres unmarked)
4. O=C(OC1CC(Cl)CC(Cl)C1)C1OC1C(=O)OC1CC(Cl)CC(Cl)C1 (centres unmarked)

1: 0.10 γ; 2: 0.25 γ; 3: 0.12 γ; 4: 2.45 γ
